Test system: S. typhimurium/E. coli reverse mutation, colony counts
protocol-text: Bacterial reverse mutation test (aka Ames test) summary data;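 further: His-minus Salmonella and trp-minus E. coli WP2 uvrA pKM101 with or without liver S9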
Records with an inconclusive call do not appear. Activity calls are given as the source filed them. How the calls were made is not given here.
Allowed answers: active, inactive

## Task Just curious, what result did Cc1c[nH]c(=S)[nH]c1=O get here?
## Result inactive

## Task Just curious, what result did COC(C)(C)CC(C)=O get here?
## Result inactive

## Task Just curious, what result did O=C1C(c2[nH]c3ccc(S(=O)(=O)O)cc3c2O)=Nc2ccc(S(=O)(=O)O)cc21 get here?
## Result active

## Task Just curious, what result did O=[N+]([O-])CCO get here?
## Result active

## Task Just curious, what result did CC(=O)OCc1ccco1 get here?
## Result active

## Task Just curious, what result did [O-][Br+2]([O-])O get here?
## Result active

## Task Just curious, what result did CN1C[C@H](C(=O)N[C@]2(C)O[C@@]3(O)[C@@H]4CCCN4C(=O)[C@H](Cc4ccccc4)N3C2=O)C=C2c3cccc4[nH]cc(c34)C[C@H]21 get here?
## Result inactive

## Task Just curious, what result did CCOC(=O)CC(SP(=O)(OC)OC)C(=O)OCC (stereo not drawn) get here?
## Result inactive

## Task Just curious, what result did CCc1ccc(C(c2ccc(CC)cc2)C(Cl)Cl)cc1 get here?
## Result active

## Task Just curious, what result did ONc1ccccc1 get here?
## Result active

## Task Just curious, what result did COc1ccc2nc(N)sc2c1 get here?
## Result active

## Task Just curious, what result did CCOC(=O)C1=C[C@]2(CC)CCCN3CCc4c(n1c1ccccc41)[C@@H]32 get here?
## Result inactive

## Task Just curious, what result did CC1(C)[C@@H]2CC[C@@]1(C)C(=O)C2 get here?
## Result inactive

## Task Just curious, what result did CCNc1cc(O)ccc1C get here?
## Result active

## Task Just curious, what result did CCCCC(CC)COC(=O)CCCCCCCCC(=O)OCC(CC)CCCC (stereo not drawn) get here?
## Result inactive

## Task Just curious, what result did COc1ccc(C)cc1N get here?
## Result active

## Task Just curious, what result did CC(=O)OCCC(C)C get here?
## Result inactive

## Task Just curious, what result did COc1cc(-c2ccc(N)c(OC)c2)ccc1N get here?
## Result active

## Task Just curious, what result did ClCCBr get here?
## Result active

## Task Just curious, what result did COc1ccc(C(Cl)=C(c2ccc(OC)cc2)c2ccc(OC)cc2)cc1 get here?
## Result inactive

## Task Just curious, what result did C=C(F)F get here?
## Result active

## Task Just curious, what result did CC[Si](Cl)(Cl)CC get here?
## Result inactive

## Task Just curious, what result did CN(C)C(=O)Oc1ccc[n+](C)c1 get here?
## Result inactive

## Task Just curious, what result did C[N+](C)(C)Cc1ccccc1 get here?
## Result inactive

## Task Just curious, what result did Cc1ccnc2c1NC(=O)c1cccnc1N2C1CC1 get here?
## Result inactive

## Task Just curious, what result did C=CC(=O)OCC(CO)(COCC(COC(=O)C=C)(COC(=O)C=C)COC(=O)C=C)COC(=O)C=C get here?
## Result inactive

## Task Just curious, what result did CC1CCC(CO)CC1 (stereo not drawn) get here?
## Result inactive

## Task Just curious, what result did Cc1cc(-c2ccc(N)c(C)c2)ccc1N get here?
## Result active

## Task Just curious, what result did O=C1c2c(O)cccc2Cc2cccc(O)c21 get here?
## Result inactive

## Task Just curious, what result did NCN get here?
## Result active

## Task Just curious, what result did O=[N+]([O-])c1cccc2cccc([N+](=O)[O-])c12 get here?
## Result active

## Task Just curious, what result did COC(=O)/C=C/C(C)=C\C=C\C(C)=C\C=C\C=C(C)\C=C\C=C(C)\C=C\C(=O)O get here?
## Result active

## Task Just curious, what result did OCCBr get here?
## Result active

## Task Just curious, what result did O=[N+]([O-])c1ccc(Cl)c(Cl)c1Cl get here?
## Result active

## Task Just curious, what result did CCCCC(CC)COC(=O)c1ccc(C(=O)OCC(CC)CCCC)c(C(=O)OCC(CC)CCCC)c1 (stereo not drawn) get here?
## Result inactive

## Task Just curious, what result did O=C1Nc2ccc(S(=O)(=O)O)cc2C1=O get here?
## Result active

## Task Just curious, what result did O=C(O)COc1ccc(Cl)cc1Cl get here?
## Result inactive

## Task Just curious, what result did Cc1ccc([N+](=O)[O-])cc1C(=O)O get here?
## Result active

## Task Just curious, what result did Cc1cccc([N+](=O)[O-])c1N get here?
## Result active

## Task Just curious, what result did O=Cc1c(Cl)cccc1Cl get here?
## Result inactive

## Task Just curious, what result did O=C(O)CO get here?
## Result inactive

## Task Just curious, what result did C=C1CC/C=C(\C)CC[C@@H]2[C@@H]1CC2(C)C get here?
## Result inactive

## Task Just curious, what result did Nc1cccc2c(=O)[nH][nH]c(=O)c12 get here?
## Result inactive

## Task Just curious, what result did O=C1C2(Cl)C3(Cl)C4(Cl)C(Cl)(Cl)C5(Cl)C3(Cl)C1(Cl)C5(Cl)C24Cl (stereo not drawn) get here?
## Result inactive

## Task Just curious, what result did Oc1c(Cl)c(Cl)c(Cl)c(Cl)c1Cl get here?
## Result inactive

## Task Just curious, what result did N[C@@H](Cc1c[nH]c2ccc(O)cc12)C(=O)O get here?
## Result inactive

## Task Just curious, what result did CCCCCCCCOP(=O)(OCCCCCCCC)OCCCCCCCC get here?
## Result inactive

## Task Just curious, what result did Oc1ccc(Cl)cc1Cc1ccccc1 get here?
## Result inactive

## Task Just curious, what result did C1CCCNCC1 get here?
## Result inactive

## Task Just curious, what result did C=CCNCC=C get here?
## Result inactive

## Task Just curious, what result did Nc1c(Cl)c(Cl)nc(C(=O)O)c1Cl get here?
## Result inactive

## Task Just curious, what result did Cc1ccc(S(=O)(=O)NC2CCCCC2)cc1 get here?
## Result inactive

## Task Just curious, what result did O=Cc1cccc(Br)c1 get here?
## Result inactive

## Task Just curious, what result did COCCOC(C)=O get here?
## Result active

## Task Just curious, what result did C=C(C#N)C(=O)OC get here?
## Result active

## Task Just curious, what result did Clc1cc(Cl)c(Cl)c(Cl)c1Cl get here?
## Result inactive

## Task Just curious, what result did O=C(O)C(Cl)Br (stereo not drawn) get here?
## Result active

## Task Just curious, what result did N#C/C=C/C#N get here?
## Result inactive
